Test system: MDA-MB231 human breast cancer cells
EXPERIMENT_DESCRIPTION: SRB cytotoxicity test, MDA-MB231
Format: cell-based
CONDITION_CONTEXT: MDA-MB-231, 72 h, SRB assay, cultured 3 days
PARAMETER_MEASURED: IC50 (µM)
# unit: µM | format: bare number

Using known records, supply IC50 for COc1cc([C@@H]2c3cc4c(cc3[C@@H](O[C@@H]3O[C@@H]5CO[C@@H](C)O[C@H]5[C@H](O)[C@H]3O)[C@H]3COC(=O)[C@H]23)OCO4)cc(OC)c1O [Etoposide, reference compound] 8.7
